// growth lookup, one value per entry
# Test system: UACC-62 melanoma
# EXPERIMENTAL_DETAILS: NCI-60 one-dose screen, 48 h (100 = growth as untreated, 0 = no growth, -100 = all killed)
# CONDITION_LABEL: 10 µM unless noted
About 83,000 compounds went through this panel and 20% of them were active in at least one assay; those are over-represented in the sample as a whole.
Express your answer in %, writing the number without its unit.

Record excerpt, results attached:
For CC1(C)[C@H](O)[C@H](F)C[C@@]2(C)Oc3ccc(C(=O)Nc4ccc5c(c4)NC(=O)C54CCN(CCCCC#N)CC4)cc3C[C@H]12 the compound record lists growth as -24.4

For CN(C)CC(C(=O)Cc1ccccc1)c1ccccc1 (stereo not drawn) the compound record lists growth as 112

For O=C(Nc1ccncc1F)c1cn(CC2CC2)c2ccccc12 the compound record lists growth as 95.3

For Cc1cccc(N2CCN(C(C)C#N)CC2)c1 (stereo not drawn) the compound record lists growth as 111

For COC(=O)[C@]12CCC(C)(C)C[C@H]1[C@H]1C(=O)C[C@@H]3[C@@]4(C)C[C@@]5(CC(C)(C)[C@@H]4CC[C@@]3(C)[C@]1(C)CC2)OO[C@@](C)(C(F)(F)F)O5 the compound record lists growth as 84.3

For CC(=O)ONc1ccc([N+](=O)[O-])c(C(F)(F)F)c1 the compound record lists growth as 96.8

New cases:
For C[C@]12CC[C@H]3[C@@H](CC[C@]4(O)C[C@@H](O[C@@H]5O[C@H](CO)[C@@H](O[C@@H]6OC[C@@H](O)[C@H](O)[C@H]6O)[C@H](O)[C@H]5O)CC[C@]34C=O)[C@@]1(O)CC[C@@H]2C1=CC(=O)OC1 the compound record lists growth as 1.05

For CC(C)=CCC/C(C)=C/C=N\N=C(/N)N[N+](=O)[O-] the compound record lists growth as 95.6
